Could you please report measured IC50 for the items listed next?
# Target: Tyrosine-protein kinase ABL1 (Homo sapiens) + Ras and Rab interactor 1 (Homo sapiens) (UniProt P00519+Q13671)
# Sequence (P00519 whole entry, looked up): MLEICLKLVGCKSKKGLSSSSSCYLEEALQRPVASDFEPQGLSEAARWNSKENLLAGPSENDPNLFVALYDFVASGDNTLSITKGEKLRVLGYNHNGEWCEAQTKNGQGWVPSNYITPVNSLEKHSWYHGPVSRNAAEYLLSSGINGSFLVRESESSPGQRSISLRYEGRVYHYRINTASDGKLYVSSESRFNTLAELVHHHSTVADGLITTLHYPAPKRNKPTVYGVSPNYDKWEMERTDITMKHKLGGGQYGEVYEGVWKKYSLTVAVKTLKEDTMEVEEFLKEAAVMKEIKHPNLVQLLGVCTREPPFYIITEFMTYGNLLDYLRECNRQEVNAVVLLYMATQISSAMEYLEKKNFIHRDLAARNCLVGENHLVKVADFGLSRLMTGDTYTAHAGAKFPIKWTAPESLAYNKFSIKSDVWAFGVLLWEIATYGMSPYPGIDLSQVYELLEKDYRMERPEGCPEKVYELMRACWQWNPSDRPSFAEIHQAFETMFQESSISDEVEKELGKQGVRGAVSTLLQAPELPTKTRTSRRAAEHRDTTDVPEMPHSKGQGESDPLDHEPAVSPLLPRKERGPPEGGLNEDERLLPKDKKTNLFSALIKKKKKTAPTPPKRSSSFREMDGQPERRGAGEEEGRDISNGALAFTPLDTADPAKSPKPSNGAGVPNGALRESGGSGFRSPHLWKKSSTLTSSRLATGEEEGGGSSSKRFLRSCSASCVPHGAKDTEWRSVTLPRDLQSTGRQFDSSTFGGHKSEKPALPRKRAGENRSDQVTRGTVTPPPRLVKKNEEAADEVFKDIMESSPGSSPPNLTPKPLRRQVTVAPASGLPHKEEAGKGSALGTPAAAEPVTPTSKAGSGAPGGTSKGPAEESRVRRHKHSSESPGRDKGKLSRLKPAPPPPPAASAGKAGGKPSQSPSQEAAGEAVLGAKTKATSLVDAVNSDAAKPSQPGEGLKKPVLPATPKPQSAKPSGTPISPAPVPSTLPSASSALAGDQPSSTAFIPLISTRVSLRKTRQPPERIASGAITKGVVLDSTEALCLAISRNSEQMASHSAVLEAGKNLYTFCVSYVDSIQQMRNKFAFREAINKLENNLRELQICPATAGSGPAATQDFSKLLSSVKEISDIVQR
# Sequence (Q13671 whole entry, looked up): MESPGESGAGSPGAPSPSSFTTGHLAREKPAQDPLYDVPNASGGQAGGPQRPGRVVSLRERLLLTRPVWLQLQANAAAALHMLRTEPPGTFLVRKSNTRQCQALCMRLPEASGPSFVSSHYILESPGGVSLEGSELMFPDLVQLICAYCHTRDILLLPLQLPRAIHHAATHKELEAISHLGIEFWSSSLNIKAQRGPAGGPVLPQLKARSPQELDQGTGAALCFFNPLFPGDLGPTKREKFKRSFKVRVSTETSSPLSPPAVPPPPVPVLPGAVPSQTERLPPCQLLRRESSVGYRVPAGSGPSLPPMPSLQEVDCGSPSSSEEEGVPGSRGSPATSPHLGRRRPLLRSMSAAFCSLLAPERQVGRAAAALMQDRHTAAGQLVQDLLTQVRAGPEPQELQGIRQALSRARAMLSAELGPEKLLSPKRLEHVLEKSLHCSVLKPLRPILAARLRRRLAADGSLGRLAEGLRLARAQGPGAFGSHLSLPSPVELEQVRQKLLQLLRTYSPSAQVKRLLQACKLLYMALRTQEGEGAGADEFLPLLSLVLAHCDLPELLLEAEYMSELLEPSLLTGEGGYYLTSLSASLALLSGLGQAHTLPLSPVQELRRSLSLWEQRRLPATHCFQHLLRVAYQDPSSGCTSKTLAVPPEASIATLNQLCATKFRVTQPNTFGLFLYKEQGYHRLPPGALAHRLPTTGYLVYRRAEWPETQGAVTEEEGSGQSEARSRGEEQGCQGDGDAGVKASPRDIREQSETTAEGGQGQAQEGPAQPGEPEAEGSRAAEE
# Assay Summary: inhibitors of Rin1-Abl protein interaction, late-stage follow-up, biochemical, TR-FRET, round 1 (AID 624124)
# Conditions Used: TR-FRET Rin1-Abl binding assay

// below: answered compounds
chemical_structure=COc1ccc(C(=O)N2CCC(C(=O)Nc3ccc(CC(=O)Nc4ccc(C(=O)N(C)C5CC5)cc4)cc3)CC2)cc1 result="3670 nM"
chemical_structure=CN(C(=O)c1ccc(NC(=O)Cc2ccc(NC(=O)C3CCN(C(=O)c4ccccc4)CC3)cc2)cc1)C1CC1 result="620 nM"
chemical_structure=CN(C(=O)c1ccc(NC(=O)Cc2ccc(NC(=O)C3CCN(C(=O)c4ccc(F)cc4)CC3)cc2)cc1)C1CC1 result="1060 nM"

Alright, here's another compound for you.
QUERY: Check the records and state IC50 for CN(C(=O)c1ccc(NC(=O)Cc2ccc(NC(=O)C3CCN(C(=O)c4cccc(F)c4)CC3)cc2)cc1)C1CC1
RESULT: 1350 nM
